Molecular target: UniProt:O42392
Sequence (O42392 1-451): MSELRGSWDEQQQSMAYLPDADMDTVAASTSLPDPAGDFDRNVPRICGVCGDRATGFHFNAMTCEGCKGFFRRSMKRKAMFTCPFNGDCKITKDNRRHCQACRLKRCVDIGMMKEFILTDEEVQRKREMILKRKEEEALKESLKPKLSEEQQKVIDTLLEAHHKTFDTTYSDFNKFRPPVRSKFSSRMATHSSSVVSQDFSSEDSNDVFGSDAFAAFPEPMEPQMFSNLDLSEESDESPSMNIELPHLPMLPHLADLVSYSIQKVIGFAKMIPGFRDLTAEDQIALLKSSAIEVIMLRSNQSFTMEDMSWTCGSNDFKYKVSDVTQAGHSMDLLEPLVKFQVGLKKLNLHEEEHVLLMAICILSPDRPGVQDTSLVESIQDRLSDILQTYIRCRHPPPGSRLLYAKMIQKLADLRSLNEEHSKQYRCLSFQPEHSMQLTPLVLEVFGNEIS
pKd: −log10 of the molar value.
MEASURE: pKd

| COMPOUND | TARGET OF ASSAY | MEASURE | MEASURED |
| --- | --- | --- | --- |
| C=C1/C(=C\C=C2/CCC[C@]3(C)[C@@H]([C@H](C)/C=C/C#CC(O)(CC)CC)CC[C@@H]23)C[C@@H](O)C[C@@H]1O [Compound (E)] | UniProt:O42392 | pKd | 9.52 |
| C=C1/C(=C\C=C2/CCC[C@]3(C)[C@@H]([C@@H](C)[C@@H](C#CCC(O)(CC)CC)OCC)CC[C@@H]23)C[C@@H](O)C[C@@H]1O [Compound (A)] | UniProt:O42392 | pKd | 9.70 |
